Recorded Kd for the following molecules
- system: Glutamate carboxypeptidase 2 (Homo sapiens)
- Sequence (Q04609 whole entry): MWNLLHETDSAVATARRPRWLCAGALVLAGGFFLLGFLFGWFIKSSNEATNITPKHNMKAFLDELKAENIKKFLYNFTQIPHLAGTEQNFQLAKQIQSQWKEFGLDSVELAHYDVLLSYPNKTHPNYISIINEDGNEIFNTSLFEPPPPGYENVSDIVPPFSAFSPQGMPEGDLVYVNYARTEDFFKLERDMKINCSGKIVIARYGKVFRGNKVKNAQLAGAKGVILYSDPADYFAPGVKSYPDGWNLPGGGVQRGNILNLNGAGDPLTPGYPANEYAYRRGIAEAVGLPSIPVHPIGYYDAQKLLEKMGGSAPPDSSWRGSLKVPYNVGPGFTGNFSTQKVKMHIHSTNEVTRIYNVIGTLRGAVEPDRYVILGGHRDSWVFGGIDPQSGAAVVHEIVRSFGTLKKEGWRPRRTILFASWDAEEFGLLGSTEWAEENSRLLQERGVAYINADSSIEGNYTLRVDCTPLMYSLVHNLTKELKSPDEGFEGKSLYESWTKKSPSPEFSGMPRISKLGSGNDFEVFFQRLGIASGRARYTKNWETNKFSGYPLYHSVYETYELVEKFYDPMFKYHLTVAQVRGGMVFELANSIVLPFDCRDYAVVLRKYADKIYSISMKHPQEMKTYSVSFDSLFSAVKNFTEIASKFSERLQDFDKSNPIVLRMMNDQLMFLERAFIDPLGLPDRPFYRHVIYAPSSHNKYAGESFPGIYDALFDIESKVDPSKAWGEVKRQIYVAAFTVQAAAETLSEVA
- assaySummary: Binding affinity to human recombinant PSMA assessed as dissociation constant by fluorescence polarization assay

>  <compoundString>
O=C(N[C@@H]1C[C@@H](C(=O)N[C@@H](CCCCNC(=S)Nc2ccc3c(c2)C(=O)OC32c3ccc(O)cc3Oc3cc(O)ccc32)C(=O)O)N(C(=O)c2cnoc2C2CC2)C1)c1c[nH]nn1

>  <system>
Glutamate carboxypeptidase 2 (Homo sapiens)

>  <Kd>
> 2 nM

$$$$
>  <compoundString>
O=C(N[C@@H]1C[C@@H](C(=O)N[C@@H](CCCCNC(=S)Nc2ccc3c(c2)C(=O)OC32c3ccc(O)cc3Oc3cc(O)ccc32)C(=O)O)N(C(=O)c2c[nH]nn2)C1)c1c[nH]nn1

>  <system>
Glutamate carboxypeptidase 2 (Homo sapiens)

>  <Kd>
> 1000 nM

$$$$
>  <compoundString>
O=C(N[C@@H]1C[C@@H](C(=O)N[C@@H](CNC(=S)Nc2ccc3c(c2)C(=O)OC32c3ccc(O)cc3Oc3cc(O)ccc32)C(=O)O)N(C(=O)c2c[nH]nn2)C1)c1c[nH]nn1

>  <system>
Glutamate carboxypeptidase 2 (Homo sapiens)

>  <Kd>
> 1000 nM

$$$$
>  <compoundString>
O=C1OC2(c3ccc(O)cc3Oc3cc(O)ccc32)c2ccc(NC(=S)NCCCC[C@H](NC(=O)[C@@H]3C[C@@H](Cc4c[nH]nn4)CN3C(=O)c3cnoc3C3CC3)C(=O)O)cc21

>  <system>
Glutamate carboxypeptidase 2 (Homo sapiens)

>  <Kd>
> 1000 nM

$$$$
>  <compoundString>
O=C(N[C@@H]1C[C@@H](C(=O)N[C@@H](CNC(=S)Nc2ccc3c(c2)C(=O)OC32c3ccc(O)cc3Oc3cc(O)ccc32)C(=O)O)N(C(=O)c2cnoc2C2CC2)C1)c1c[nH]nn1

>  <system>
Glutamate carboxypeptidase 2 (Homo sapiens)

>  <Kd>
> 1000 nM

$$$$
>  <compoundString>
O=C(N[C@@H]1C[C@@H](C(=O)N[C@H](CCCCNC(=S)Nc2ccc3c(c2)C(=O)OC32c3ccc(O)cc3Oc3cc(O)ccc32)C(=O)O)N(C(=O)c2cnoc2C2CC2)C1)c1c[nH]nn1

>  <system>
Glutamate carboxypeptidase 2 (Homo sapiens)

>  <Kd>
> 1000 nM

$$$$

----------
- system: N-acetylated-alpha-linked acidic dipeptidase 2 (Homo sapiens, UniProt Q9Y3Q0)
- Sequence (Q9Y3Q0 whole entry): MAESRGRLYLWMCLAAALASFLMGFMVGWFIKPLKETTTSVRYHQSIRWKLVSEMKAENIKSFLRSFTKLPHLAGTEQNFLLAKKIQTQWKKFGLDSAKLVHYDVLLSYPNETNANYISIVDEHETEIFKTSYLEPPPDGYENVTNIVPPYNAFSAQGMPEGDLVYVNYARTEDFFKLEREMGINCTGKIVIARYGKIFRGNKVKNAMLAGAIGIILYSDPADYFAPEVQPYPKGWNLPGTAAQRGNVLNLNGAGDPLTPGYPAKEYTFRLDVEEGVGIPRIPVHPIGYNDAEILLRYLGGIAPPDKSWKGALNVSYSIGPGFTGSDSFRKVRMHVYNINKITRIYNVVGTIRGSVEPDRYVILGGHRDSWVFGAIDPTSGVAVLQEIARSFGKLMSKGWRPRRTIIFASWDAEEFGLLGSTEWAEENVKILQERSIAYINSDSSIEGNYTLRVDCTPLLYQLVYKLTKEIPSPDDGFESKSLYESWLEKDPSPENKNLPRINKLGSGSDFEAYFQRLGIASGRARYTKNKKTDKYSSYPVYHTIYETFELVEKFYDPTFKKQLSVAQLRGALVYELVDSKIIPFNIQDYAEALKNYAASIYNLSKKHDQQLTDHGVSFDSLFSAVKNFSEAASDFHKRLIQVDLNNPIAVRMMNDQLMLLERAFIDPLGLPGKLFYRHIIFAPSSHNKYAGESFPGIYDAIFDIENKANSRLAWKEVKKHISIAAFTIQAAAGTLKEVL
- assaySummary: Binding affinity to human recombinant GCPIII assessed as dissociation constant by fluorescence polarization assay
The following compounds are listed with their measured Kd values.

>  <compoundString>
O=C(N[C@@H]1C[C@@H](C(=O)N[C@@H](CNC(=S)Nc2ccc3c(c2)C(=O)OC32c3ccc(O)cc3Oc3cc(O)ccc32)C(=O)O)N(C(=O)c2cnoc2C2CC2)C1)c1c[nH]nn1

>  <Kd [nM]>
6.3

$$$$
>  <compoundString>
COc1ccc(C2=[N+]3C(=Cc4c(C)c(CCC(=O)NCCCC[C@H](NC(=O)[C@@H]5C[C@@H](NC(=O)c6c[nH]nn6)CN5C(=O)c5cnoc5C5CC5)C(=O)O)c(C)n4[B-]3(F)F)C=C2)cc1

>  <Kd [nM]>
15

$$$$
>  <compoundString>
O=C(N[C@@H]1C[C@@H](C(=O)N[C@@H](CCCCNC(=S)Nc2ccc3c(c2)C(=O)OC32c3ccc(O)cc3Oc3cc(O)ccc32)C(=O)O)N(C(=O)c2cnoc2C2CC2)C1)c1c[nH]nn1

>  <Kd [nM]>
14

$$$$
>  <compoundString>
O=C(N[C@@H]1C[C@@H](C(=O)N[C@@H](CCCCNC(=S)Nc2ccc3c(c2)C(=O)OC32c3ccc(O)cc3Oc3cc(O)ccc32)C(=O)O)N(C(=O)c2cnoc2-c2ccccc2)C1)c1c[nH]nn1

>  <Kd [nM]>
6.4

$$$$
